System: LXRa:RXRa (NR concentration 270 nM, RXRa partner concentration 90 nM)
testSummary: PBM binding z-score (relative to random genomic background probes); higher = stronger binding; sequences stand for … in GC…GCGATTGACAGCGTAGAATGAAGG
resultType: PBM binding z-score
// response body must contain only the number

Guide cases for PBM binding z-score, answers given:
querySequence | PBM binding z-score
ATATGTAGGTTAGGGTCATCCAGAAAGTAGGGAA | 4.21
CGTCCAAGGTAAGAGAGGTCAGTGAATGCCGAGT | 2.42
CGAACTAGGTCACCAGGACAGGGAAGAGGTTGGA | 2.49

Reported PBM binding z-score for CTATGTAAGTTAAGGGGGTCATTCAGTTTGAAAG : what is it? 4.34

Entry to check: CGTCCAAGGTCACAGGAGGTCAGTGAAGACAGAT 7.39

Entry to check: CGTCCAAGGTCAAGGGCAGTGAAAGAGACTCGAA 4.83

----------
# maps each entry to its PBM binding z-score
System: PPARg:RXRa IVT, anti-PPARg (NR concentration 270 nM, RXRa partner concentration 90 nM)
testSummary: PBM binding z-score (relative to random genomic background probes); higher = stronger binding; sequences stand for … in GC…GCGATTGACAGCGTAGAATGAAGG
// response body must contain only the number

querySequence | PBM binding z-score
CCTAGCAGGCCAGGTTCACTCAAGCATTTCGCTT | -0.316
TCGAGTAAGTTACGGGGGCATTCAGGGATGAAGA | 3.02

Reported PBM binding z-score for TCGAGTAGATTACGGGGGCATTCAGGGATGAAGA : what is it? 2.81

Entry to check: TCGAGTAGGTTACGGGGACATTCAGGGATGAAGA 4.72

Entry to check: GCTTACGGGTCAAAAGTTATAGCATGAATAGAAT 3.87

Entry to check: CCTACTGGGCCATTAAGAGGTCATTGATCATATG 4.13

Entry to check: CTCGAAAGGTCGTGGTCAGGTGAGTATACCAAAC 2.33

Entry to check: GACACAGGGTCAGCTAGAGGCCAGAGTATGGAAA 1.9

----------
Tested on: LXRa:RXRa (NR concentration 270 nM, RXRa partner concentration 90 nM)
testSummary: PBM binding z-score (relative to random genomic background probes); higher = stronger binding; sequences stand for … in GC…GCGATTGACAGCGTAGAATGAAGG
In this scheme, each record receives a class according to its PBM binding z-score; the ranges are band A: < 2; band B: ≥ 2 and < 5; band C: ≥ 5

querySequence | groupLabel
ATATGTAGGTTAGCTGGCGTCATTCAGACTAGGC | band A

Input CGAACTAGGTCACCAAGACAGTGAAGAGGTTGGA ; output its category band A

Entry to check: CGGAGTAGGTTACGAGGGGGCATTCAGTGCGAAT band C

Entry to check: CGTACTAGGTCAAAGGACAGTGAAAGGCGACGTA band B

Entry to check: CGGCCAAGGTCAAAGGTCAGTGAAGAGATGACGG band C

Entry to check: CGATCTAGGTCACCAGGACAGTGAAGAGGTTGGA band B

Entry to check: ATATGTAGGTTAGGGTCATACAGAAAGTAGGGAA band B

Entry to check: CAAACTAGGTCACCGGAAGGTCAAAGTTCGCATG band C

Entry to check: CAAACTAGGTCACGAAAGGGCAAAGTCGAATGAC band C

Entry to check: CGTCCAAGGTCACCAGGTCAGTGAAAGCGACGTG band C

Entry to check: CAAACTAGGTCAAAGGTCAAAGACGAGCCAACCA band C

Entry to check: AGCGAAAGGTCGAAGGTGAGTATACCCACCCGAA band B

Entry to check: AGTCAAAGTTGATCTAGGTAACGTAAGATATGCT band A

Entry to check: CGTCCAAGGGCAATGCTAGGTCAGTGAAAGCATT band B

Entry to check: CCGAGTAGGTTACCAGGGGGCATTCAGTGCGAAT band C

Entry to check: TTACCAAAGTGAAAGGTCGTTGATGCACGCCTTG band A

Entry to check: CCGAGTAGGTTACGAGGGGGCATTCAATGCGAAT band C
